Source listed as patent US20240041042A1.

# Tested on: Alopecurus myosuroides (ALOMY)
# Protocol details: Pre-emergence herbicidal action against ALOMY
# Assay type: in vivo
# Study conditions: 80 g/ha; scored visually after about 3 weeks; 100% = plants have died
I'd be grateful if you could share measured Pre-emergence action against ALOMY for these entries.
Numbers only, in %.

stdin: Which Pre-emergence action against ALOMY value is on record for CCOC(=O)C(C)Oc1nn(-c2ccccn2)c(-c2ccc(F)nc2)c1C(F)(F)F (centres unmarked) ?
stdout: 90

Batch: Pre-emergence action against ALOMY for all items listed.
1. C[C@@H](Oc1nn(-c2ncccc2Cl)c(-c2ccc(F)nc2)c1Br)C(=O)O
2. CCOC(=O)COc1nn(-c2ccccn2)c(-c2ccc(F)nc2)c1Cl
3. CCOC(=O)[C@@H](C)Oc1nn(-c2nc(F)ccc2F)c(-c2cncc(F)c2)c1Cl

stdout:
1. 80
2. 80
3. 90

Batch: Pre-emergence action against ALOMY for all items listed.
1. C[C@@H](Oc1nn(-c2ncccc2F)c(-c2ccc(F)nc2)c1Br)C(=O)OCc1ccccn1
2. CCOC(=O)COc1nn(-c2nc(F)ccc2F)c(-c2cncc(F)c2)c1C1CC1

stdout:
90
90

Batch: Pre-emergence action against ALOMY for all items listed.
1. CCOC(=O)COc1nn(-c2ncccc2C)c(-c2ccc(F)nc2)c1Cl
2. COC(=O)CCOC(=O)[C@@H](C)Oc1nn(-c2ccccn2)c(-c2cncc(F)c2)c1Br

stdout:
1. 90
2. 90
